Where do the numbers come from? From paper PMC10397247.

Target: T1, 4H2702-bN
T1 chain: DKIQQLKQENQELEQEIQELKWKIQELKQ
Test: two-hybrid library CCNG1;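 also: natural log of median RNA to DNA barcode read ratio; higher means stronger binding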
Threshold-based label: interaction score under -0.1 gives t, interaction score not under -0.1 gives f.

Examples with answers:
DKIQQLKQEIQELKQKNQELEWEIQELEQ [4H2673-bN]: t
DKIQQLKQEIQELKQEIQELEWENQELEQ [4H2627-bN]: t
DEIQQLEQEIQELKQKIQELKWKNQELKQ [4H112-bN]: f
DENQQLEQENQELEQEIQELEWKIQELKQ [4H1158-bN]: t
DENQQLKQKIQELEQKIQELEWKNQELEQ [4H1831-bN]: t

Determine whether this binder shows interaction score lower than -0.1 (ties excluded): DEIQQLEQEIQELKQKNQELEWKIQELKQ [4H118-bN] f
